- System: SGC-7901
- procedure details: Cytotoxicity against human SGC7901 cells after 48 hrs by MTT assay
- Assay type: functional, cell-based
- condition notes: SGC-7901, 48 h
pIC50: −log10 of the molar value.
Class TRUE: pIC50 at least 5. Class FALSE: pIC50 below 5.

{"molecule": "CC1CCN(CC(=O)N2N=C(c3cc4ccccc4oc3=O)CC2c2ccccc2)CC1 (stereo unspecified)", "tgt": "SGC-7901", "label": "TRUE"}
{"molecule": "CC1=NN(C(=O)CN2CCCCC2C(N)=O)C(c2ccccc2O)C1 (stereo unspecified)", "tgt": "SGC-7901", "label": "FALSE"}
{"molecule": "CCC1CCCCN1CC(=O)N1N=C(c2cc3ccccc3oc2=O)CC1c1ccccc1 (stereo unspecified)", "tgt": "SGC-7901", "label": "TRUE"}
{"molecule": "CC1=NN(C(=O)CN2CCCCC2[N+](=O)[O-])C(c2ccccc2O)C1 (stereo unspecified)", "tgt": "SGC-7901", "label": "FALSE"}
{"molecule": "O=c1[nH]cc(F)c(=O)[nH]1 [FLUOROURACIL]", "tgt": "SGC-7901", "label": "TRUE"}
{"molecule": "CC1=NN(C(=O)CN2CCC(O)CC2)C(c2ccccc2O)C1 (stereo unspecified)", "tgt": "SGC-7901", "label": "TRUE"}
{"molecule": "CC1=NN(C(=O)CN2CCC(C(F)(F)F)CC2)C(c2ccccc2O)C1 (stereo unspecified)", "tgt": "SGC-7901", "label": "TRUE"}
{"molecule": "CC1=NN(C(=O)CN2CCC(C)CC2)C(c2ccccc2O)C1 (stereo unspecified)", "tgt": "SGC-7901", "label": "TRUE"}

* * *

In this section, each of the compounds is paired with its reported IC50.
- Test system: SGC-7901
- procedure details: Cytotoxicity against human SGC7901 cells after 48 hrs by MTT assay
- Format: functional, cell-based
- condition notes: SGC-7901, 48 h

{"compound": "O=C(CN1CCC(Br)CC1)N1N=C(c2cc3ccccc3oc2=O)CC1c1ccccc1 (stereo not drawn)", "IC50": "10.3 µM"}
{"compound": "CC1=NN(C(=O)CN2CCCCC2C)C(c2ccccc2O)C1 (stereo not drawn)", "IC50": "11.2 µM"}
{"compound": "CCC1CCCCN1CC(=O)N1N=C(C)CC1c1ccccc1O (stereo not drawn)", "IC50": "12.9 µM"}
